Protocol notes: in vitro
Measurement parameters: human
Structures can show the parent of a compound that is named as a salt.
Lab note: compare viability at 10 µM with 80%, writing Satisfied if less and Not satisfied if equal or more.

Below are worked cases with known answers.
- C/C=C(/C)C(=O)O[C@H]1C(C)=C2[C@H]([C@@H]1OC(=O)CCCCCCC)[C@@](C)(OC(C)=O)C[C@H](OC(=O)CCC)[C@@]1(O)[C@H]2OC(=O)[C@@]1(C)O: Satisfied
- CC[C@H]1CN2CCc3cc(OC)c(OC)cc3[C@@H]2C[C@@H]1C[C@H]1NCCc2cc(OC)c(OC)cc21 [Emetine dihydrochloride hydrate]: Satisfied
- Cc1ccc(S(=O)(=O)NC(=O)NN2CCCCCC2)cc1 [Tolazamide]: Not satisfied

Regarding C=C(NC(=O)C(=C)NC(=O)c1csc(C2=N[C@@H]3c4csc(n4)[C@H]4NC(=O)c5csc(n5)[C@H]([C@](C)(O)[C@@H](C)O)NC(=O)[C@H]5CSC(=N5)/C(=C/C)NC(=O)[C@H]([C@@H](C)O)NC(=O)c5csc(n5)[C@]3(CC2)NC(=O)[C@H](C)NC(=O)C(=C)NC(=O)[C@H](C)NC(=O)[C@H]([C@@H](C)CC)N[C@@H]2C=Cc3c([C@H](C)O)cc(nc3[C@H]2O)C(=O)O[C@@H]4C)n1)C(N)=O , kindly confirm whether its viability at 10 µM is beneath 80%. Satisfied

* * *

Protocol notes: in vitro
Measurement parameters: human, % viability (SFV screen)
Structures can show the parent of a compound that is named as a salt.
This section presents compounds with their documented viability at 10 µM values.

• CSc1ccc2c(c1)C(N1CCN(C)CC1)Cc1ccccc1S2 (stereo not drawn) [Methiothepin mesylate] = 66.6%
• C=C(NC(=O)C(=C)NC(=O)c1csc(C2=N[C@@H]3c4csc(n4)[C@H]4NC(=O)c5csc(n5)[C@H]([C@](C)(O)[C@@H](C)O)NC(=O)[C@H]5CSC(=N5)/C(=C/C)NC(=O)[C@H]([C@@H](C)O)NC(=O)c5csc(n5)[C@]3(CC2)NC(=O)[C@H](C)NC(=O)C(=C)NC(=O)[C@H](C)NC(=O)[C@H]([C@@H](C)CC)N[C@@H]2C=Cc3c([C@H](C)O)cc(nc3[C@H]2O)C(=O)O[C@@H]4C)n1)C(N)=O = 88.5%
• Nc1c2ccccc2nc2ccccc12 = 87.4%
• c1ccc2c(c1)OCC(C1=NCCN1)O2 (stereo not drawn) [Idazoxan hydrochloride] = 67.6%
• CSc1ccc2c(c1)N(CCC1CCCCN1C)c1ccccc1S2 (stereo not drawn) [Thioridazine hydrochloride] = 71.3%

Consider now this further compound.
Endpoint output: viability at 10 µM of Cc1ccc(S(=O)(=O)NC(=O)NN2CCCCCC2)cc1 [Tolazamide] . Value? 113%

* * *

This section presents molecules with their documented % viability (DENV-2 screen) values.
Test system: Huh7 cells
Measurement parameters: 10 µM

// map Cc1ccc(S(=O)(=O)N[C@@H](Cc2ccccc2)C(=O)CCl)cc1 to recorded % viability (DENV-2 screen) (system: Huh7 cells) 58.91%

* * *

Test system: SFV
Assay type: cell-based, Semliki Forest virus
Measured attribute: Time of Addition

- CC(C)(C)c1cc(C=C(C#N)C#N)cc(C(C)(C)C)c1O: Before and after fusion
- O=C(Nc1ccc([N+](=O)[O-])cc1Cl)c1cc(Cl)ccc1O [Niclosamide]: Before and after fusion
